System: HEK-293T
measurement description: Cytotoxicity against human HEK293T cells after 24 hrs by MTT assay
Type: cell-based
I'd be grateful if you could share measured pIC50 for these entries.
Expect pIC50 as a plain number equal to -log10 of the molar concentration.

Query block: # lookup: pIC50 of COc1ccc2c(c1)-c1n[nH]c(/C=C/C(=O)c3cc(OC)c(OC)c(OC)c3)c1C2
Result block: 4.49

Query block: # lookup: pIC50 of COc1cc2c(cc1OC)-c1n[nH]c(/C=C/C(=O)c3ccc(N)cc3)c1C2
Result block: 4.70

Query block: # lookup: pIC50 of C#Cc1cccc(Nc2ncnc3cc(OCCOC)c(OCCOC)cc23)c1
Result block: 4.14

Query block: # lookup: pIC50 of O=C(/C=C/c1[nH]nc2c1Cc1ccccc1-2)c1ccc2c(c1)OCO2
Result block: 4.77

Query block: # lookup: pIC50 of COc1ccc(C(=O)/C=C/c2[nH]nc3c2Cc2ccccc2-3)cc1
Result block: 4.68
